target: Sphingosine 1-phosphate receptor 1 (Homo sapiens, UniProt P21453); assay: potentiators of S1P1 agonist response, dose response, cell-based, potentiator mode, 60K MLSMR set (AID 466)
Sequence (P21453 whole entry): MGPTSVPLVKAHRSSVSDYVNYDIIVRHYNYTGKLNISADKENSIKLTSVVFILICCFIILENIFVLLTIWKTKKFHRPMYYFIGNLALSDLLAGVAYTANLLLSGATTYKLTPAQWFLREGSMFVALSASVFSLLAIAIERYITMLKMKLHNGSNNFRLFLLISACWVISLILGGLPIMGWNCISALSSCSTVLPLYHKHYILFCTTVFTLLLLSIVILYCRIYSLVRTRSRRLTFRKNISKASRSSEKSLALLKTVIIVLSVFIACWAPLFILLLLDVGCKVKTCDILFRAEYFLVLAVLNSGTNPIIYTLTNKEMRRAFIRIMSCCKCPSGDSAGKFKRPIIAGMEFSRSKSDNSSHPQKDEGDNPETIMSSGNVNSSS
For each of the molecules below, state its EC50.
Numbers only, in µM.

Some solved entries appear below for comparison.
Molecule | Endpoint Unit | EC50
Oc1ccc(-c2nc(-c3ccc(O)c(O)c3)cs2)cc1 | µM | 13.1
CCc1ccc(S(=O)(=O)NCCc2csc(-c3ccccc3)n2)s1 | µM | 8.24
O=C(CSC1=NCCS1)Nc1ccnc2ccccc12 | µM | 2.55
CCCC(=O)Nc1ccc(-c2nc3cc(C)ccc3o2)cc1 [MLS000061826] | µM | 6.36
Cc1ccc2c(c1)[nH]c1c(N3CCN(Cc4ccccc4)CC3)ncnc12 [SMR000044826] | µM | 3.65

Please give EC50 for each item listed below.
1. COc1ccc(C(c2c(O)ccc3ccccc23)N2CCOCC2)c(OC)c1 (configuration not stated)
2. N#Cc1nc(-c2ccc(OCc3ccccc3)cc2)oc1NCc1cccnc1

Result:
[3.83, 9.76]

Hello, the source for this data is BindingDB's records for doi:10.7270/Q2ZC817P, in case you need it.
